Biological target: T1, SNTB1, Q13884
T1 sequence (Q13884 107-205, limits assumed, looked up): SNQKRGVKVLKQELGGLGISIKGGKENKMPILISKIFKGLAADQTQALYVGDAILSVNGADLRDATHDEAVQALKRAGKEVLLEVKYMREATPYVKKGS
Experiment: holdup assay
Set-up: key: below the threshold = too weak to quantify, mostly under pKd 3.1 to 4
Conditions: plain residues with an end cap or a label only (N-terminal biotin on a linker: ttds)
Recorded metric: pKd
One number for each entry.

Sample records with pKd:
> print(dat)
                         binder  recorded.metric  observed
1     FVETQHQTQV [FAT3, Q8TDW7]              pKd      4.19
2      KQVVPFSSSV [GDA, Q9Y2T3]              pKd      3.65
3  NPDALPETLV [ARHGAP6, O43182]              pKd      4.86

# batch size: 5; output pKd per entry
1. QRPYRRESEI [KCNJ12, Q14500]
2. SHSSKGETAV [FZD7, O75084]
3. SGGKRKETLV [NET1, Q7Z628]
4. SRSRRRETAL [HPV33-E6, P06427]
5. GARVSKETPL [MAPK12, P53778]

[A]
1: 3.86; 2: 4.49; 3: 4.56; 4: 5.05; 5: 4.71
